assay_system: VMAT2 I308V (Homo sapiens, UniProt Q05940, I308V)
Construct: The eGFP-tagged full-length VMAT2 or VMAT2 mutants was purified by size exclusion chromatography; made in house; host or cells: Expi293 cells
assay_name: MST binding to VMAT2 I308V mutant
recorded_conditions: I308V variant, mean ± SEM
experimental_endpoint: Kd (nM)

compound | experimental_endpoint | reported_measurement
COc1cc2c(cc1OC)C1CC(=O)C(CC(C)C)CN1CC2 (stereo not shown) | Kd | 168

====

assay_system: VMAT2 Y433F (Homo sapiens, UniProt Q05940, Y433F)
Construct: The eGFP-tagged full-length VMAT2 or VMAT2 mutants was purified by size exclusion chromatography; made in house; host or cells: Expi293 cells
Sequence (Q05940 whole entry Y433F): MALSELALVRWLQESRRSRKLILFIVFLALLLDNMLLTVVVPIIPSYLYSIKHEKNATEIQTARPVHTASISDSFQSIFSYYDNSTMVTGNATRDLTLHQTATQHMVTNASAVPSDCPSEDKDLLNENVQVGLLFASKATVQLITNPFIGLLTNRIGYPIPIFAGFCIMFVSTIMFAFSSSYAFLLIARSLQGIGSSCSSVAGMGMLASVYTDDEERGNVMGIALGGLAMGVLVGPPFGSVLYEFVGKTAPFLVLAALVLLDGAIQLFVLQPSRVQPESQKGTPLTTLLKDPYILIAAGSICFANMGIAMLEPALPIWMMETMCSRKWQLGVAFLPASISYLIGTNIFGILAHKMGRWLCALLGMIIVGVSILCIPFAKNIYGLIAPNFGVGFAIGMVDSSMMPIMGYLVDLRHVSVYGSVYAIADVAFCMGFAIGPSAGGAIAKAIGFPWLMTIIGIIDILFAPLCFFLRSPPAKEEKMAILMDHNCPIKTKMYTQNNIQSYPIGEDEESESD
assay_name: MST binding to VMAT2 Y433F mutant
recorded_conditions: Y433F variant, mean ± SEM

compound | unit_label | Kd
NCCc1c[nH]c2ccc(O)cc12 | nM | 3440
COc1cc2c(cc1OC)C1CC(=O)C(CC(C)C)CN1CC2 (centres unmarked) | nM | 437

====

assay_system: VMAT2_WT (Homo sapiens, UniProt Q05940)
Sequence (Q05940 whole entry): as the sequence (Q05940 whole entry Y433F) above, with F433Y counted along it
assay_name: MST binding to WT VMAT2

compound_structure_string | Kd
NCCc1c[nH]c2ccc(O)cc12 | 3.3 µM

====

assay_system: VMAT1_WT (Homo sapiens, UniProt P54219)
Sequence (P54219 whole entry): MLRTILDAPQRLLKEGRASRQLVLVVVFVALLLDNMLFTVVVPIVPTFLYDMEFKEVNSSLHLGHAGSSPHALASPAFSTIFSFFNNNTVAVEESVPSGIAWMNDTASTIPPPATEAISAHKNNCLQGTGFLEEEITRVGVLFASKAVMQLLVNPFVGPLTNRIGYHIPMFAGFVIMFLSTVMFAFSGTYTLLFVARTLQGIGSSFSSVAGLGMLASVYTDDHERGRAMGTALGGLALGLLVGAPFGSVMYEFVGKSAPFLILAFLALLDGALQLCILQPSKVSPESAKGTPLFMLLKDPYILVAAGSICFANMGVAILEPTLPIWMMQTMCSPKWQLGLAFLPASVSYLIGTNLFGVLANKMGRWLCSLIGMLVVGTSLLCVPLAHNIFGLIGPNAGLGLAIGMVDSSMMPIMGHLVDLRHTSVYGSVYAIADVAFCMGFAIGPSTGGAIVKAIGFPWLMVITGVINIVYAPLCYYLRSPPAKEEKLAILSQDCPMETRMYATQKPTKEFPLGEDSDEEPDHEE
pKd: −log10 of the molar value.

compound | assay_system | pKd
COc1cc2c(cc1OC)C1CC(=O)C(CC(C)C)CN1CC2 (stereo not shown) | VMAT1_WT (Homo sapiens, UniProt P54219) | 5.03

====

assay_system: VMAT2 V232L (Homo sapiens, UniProt Q05940, V232L)
Construct: The eGFP-tagged full-length VMAT2 or VMAT2 mutants was purified by size exclusion chromatography
Sequence (Q05940 whole entry V232L): as the sequence (Q05940 whole entry Y433F) above, with V232L, F433Y counted along it
assay_name: MST binding to VMAT2 V232L mutant
recorded_conditions: V232L variant, mean ± SEM
experimental_endpoint: Kd (µM)

molecule | experimental_endpoint | unit_label | reported_measurement
COc1cc2c(cc1OC)C1CC(=O)C(CC(C)C)CN1CC2 (stereo not shown) [TBZ, tetrabenazine] | Kd | µM | 22.9

====

assay_system: VMAT2 L37F (Homo sapiens, UniProt Q05940, L37F)
Construct: The eGFP-tagged full-length VMAT2 or VMAT2 mutants was purified by size exclusion chromatography
Sequence (Q05940 whole entry L37F): as the sequence (Q05940 whole entry Y433F) above, with L37F, F433Y counted along it
assay_name: MST binding to VMAT2 L37F mutant
recorded_conditions: MST, L37F variant, mean ± SEM

compound | assay_system | Kd [nM]
COc1cc2c(cc1OC)C1CC(=O)C(CC(C)C)CN1CC2 (stereo not shown) | VMAT2 L37F (Homo sapiens, UniProt Q05940, L37F) | 2780

====

assay_system: VMAT2_WT (Homo sapiens, UniProt Q05940)
assay_name: MST binding to WT VMAT2
recorded_conditions: MST, VMAT2 WT, mean ± SEM, n = 3–4; read-out: Kd
Procedure: The eGFP-tagged full-length VMAT2 or VMAT2 mutants was purified by size exclusion chromatography in the assay buffer (50 mM HEPES, 150 mM NaCl, 0.01% DDM, 0.001% CHS, pH 7.4) as described but without cleavage. Peak fractions were pooled and diluted to 40 nM. […] Kd was determined using the MO. […] Data of at least three independently pipetted measurements were analyzed and Kd is expressed as mean ± SEM. […]
experimental_endpoint: Kd (nM)

molecule | reported_measurement
COc1cc2c(cc1OC)C1CC(=O)C(CC(C)C)CN1CC2 (stereo not shown) | 60
